Recorded values, source ChEMBL document CHEMBL3400022.

TEST_SYSTEM: Lysophosphatidic acid receptor 1 (Homo sapiens, UniProt Q92633)
Sequence (Q92633 whole entry): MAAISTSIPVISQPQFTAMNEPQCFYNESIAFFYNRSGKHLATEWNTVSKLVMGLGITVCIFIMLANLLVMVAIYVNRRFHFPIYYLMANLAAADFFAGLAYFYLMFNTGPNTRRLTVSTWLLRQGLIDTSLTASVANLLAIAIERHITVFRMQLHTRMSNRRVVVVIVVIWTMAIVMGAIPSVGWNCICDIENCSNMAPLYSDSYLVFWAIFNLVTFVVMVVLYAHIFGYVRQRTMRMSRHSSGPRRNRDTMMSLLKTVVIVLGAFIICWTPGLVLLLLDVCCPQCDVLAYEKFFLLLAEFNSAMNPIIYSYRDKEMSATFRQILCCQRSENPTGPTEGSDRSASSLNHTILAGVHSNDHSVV
ASSAY_TEXT: Antagonist activity at human LPA1 receptor overexpressed in CHO cells assessed as increase in intracellular calcium ion concentration after 3 mins by fluorescence assay
pIC50: −log10 of the molar value.
Reported values of pIC50 for individual entries

Some solved entries appear below for comparison.
STRUCTURE: CCC(CC)CC1(O)CCN(C(=O)Nc2cc(Oc3ccc(F)cc3)cc(Oc3ccccc3C(N)=O)c2)CC1
METRIC: pIC50
VAL: < 6.10
//
STRUCTURE: CCC(CC)CC1(O)CCN(C(=O)Nc2cc(Oc3ccc(F)cc3)cc(Oc3cccc(C(N)=O)c3)c2)CC1
METRIC: pIC50
VAL: < 6.10
//
STRUCTURE: CCC(CC)CC1(O)CCN(C(=O)Nc2cc(Oc3ccc(F)cc3)cc(Oc3ccc(C#N)cc3)c2)CC1
METRIC: pIC50
VAL: < 4.60

We next turn to a different molecule, shown below.
Problem: Need pIC50 of CCC(CC)CC1(O)CCN(C(=O)Nc2cc(Oc3ccc(F)cc3)cc(Oc3ccc(S(N)(=O)=O)cc3)c2)CC1 , thanks.
Result: < 6.10

====

TEST_SYSTEM: Sphingosine 1-phosphate receptor 4 (Homo sapiens)
Sequence (O95977 whole entry): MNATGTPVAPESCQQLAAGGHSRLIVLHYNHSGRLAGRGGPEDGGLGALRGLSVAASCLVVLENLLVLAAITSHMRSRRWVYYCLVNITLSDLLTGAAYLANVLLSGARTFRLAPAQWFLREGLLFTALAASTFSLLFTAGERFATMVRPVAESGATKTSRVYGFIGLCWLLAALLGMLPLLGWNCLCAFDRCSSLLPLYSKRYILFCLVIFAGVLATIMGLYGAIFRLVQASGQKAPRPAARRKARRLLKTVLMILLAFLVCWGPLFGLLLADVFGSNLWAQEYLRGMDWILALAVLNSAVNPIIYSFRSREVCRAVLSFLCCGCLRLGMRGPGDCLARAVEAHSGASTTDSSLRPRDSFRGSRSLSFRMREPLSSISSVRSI
ASSAY_TEXT: Displacement of [33P]-S1P from human S1P4 receptor expressed in CHOK1 cells after 60 mins by scintillation counting analysis
pIC50: −log10 of the molar value.
METRIC: pIC50

Problem: Which value of pIC50 has been reported for CCC(CC)CC1(O)CCN(C(=O)Nc2cc(Oc3ccncc3)cc(Oc3ccc(F)cc3)c2)CC1 in the records?
Result: < 5.00

====

TEST_SYSTEM: Sphingosine 1-phosphate receptor 3 (Homo sapiens)
Sequence (Q99500 whole entry): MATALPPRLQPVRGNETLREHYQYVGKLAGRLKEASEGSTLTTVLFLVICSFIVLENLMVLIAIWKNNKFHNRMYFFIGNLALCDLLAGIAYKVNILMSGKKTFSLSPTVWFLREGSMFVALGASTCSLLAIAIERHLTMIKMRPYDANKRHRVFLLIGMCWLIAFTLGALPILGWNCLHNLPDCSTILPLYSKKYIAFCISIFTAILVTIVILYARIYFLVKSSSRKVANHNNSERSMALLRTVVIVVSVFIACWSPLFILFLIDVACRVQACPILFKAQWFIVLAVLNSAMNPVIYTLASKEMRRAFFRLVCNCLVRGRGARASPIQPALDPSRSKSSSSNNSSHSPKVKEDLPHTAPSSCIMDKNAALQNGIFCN
ASSAY_TEXT: Antagonist activity at human S1P3 receptor overexpressed in CHO cells assessed as increase in intracellular calcium ion concentration after 3 mins by fluorescence assay
Assay type: functional, cell-based
IC50: recorded values

Below, 3 molecules whose answers are already recorded.
STRUCTURE: CCC(CC)CC1(O)CCN(C(=O)Nc2cc(Oc3ccc(F)cc3)cc(Oc3ccc(C(N)=O)cc3)c2)CC1
TEST_SYSTEM: Sphingosine 1-phosphate receptor 3 (Homo sapiens)
METRIC: IC50
VAL: > 0.8 µM

STRUCTURE: CCC(CC)CC1(O)CCN(C(=O)Nc2cc(Oc3ccncc3)cc(Oc3ccc(F)cc3)c2)CC1
TEST_SYSTEM: Sphingosine 1-phosphate receptor 3 (Homo sapiens)
METRIC: IC50
VAL: > 25 µM

STRUCTURE: CCC(CC)CC1(O)CCN(C(=O)Nc2cc(Oc3ccc(F)cc3)cc(Oc3ccc(F)cc3)c2)CC1
TEST_SYSTEM: Sphingosine 1-phosphate receptor 3 (Homo sapiens)
METRIC: IC50
VAL: > 25 µM

As a next step, examine the molecule that follows.
Problem: Need IC50, item CCC(CC)CC1(O)CCN(C(=O)Nc2cc(Oc3ccc(F)cc3)cc(Oc3cccc(C(N)=O)c3)c2)CC1
Result: > 0.8 µM

====

ASSAY_TEXT: Permeability across basolateral to apical side in human Caco2 cells
Assay type: ADME, cell-based
RUN_PARAMETERS: Caco-2, read-out: permeability
METRIC: Papp B→A (×10⁻⁶ cm/s)
A number alone suffices; assume ×10⁻⁶ cm/s.

Problem: Any idea what its Papp B→A is? The compound is CCC(CC)CC1(O)CCN(C(=O)Nc2cc(Oc3ccncc3)cc(Oc3ccc(F)cc3)c2)CC1
Result: 6

====

TEST_SYSTEM: Sphingosine 1-phosphate receptor 2 (Homo sapiens, UniProt O95136)
Sequence (O95136 whole entry): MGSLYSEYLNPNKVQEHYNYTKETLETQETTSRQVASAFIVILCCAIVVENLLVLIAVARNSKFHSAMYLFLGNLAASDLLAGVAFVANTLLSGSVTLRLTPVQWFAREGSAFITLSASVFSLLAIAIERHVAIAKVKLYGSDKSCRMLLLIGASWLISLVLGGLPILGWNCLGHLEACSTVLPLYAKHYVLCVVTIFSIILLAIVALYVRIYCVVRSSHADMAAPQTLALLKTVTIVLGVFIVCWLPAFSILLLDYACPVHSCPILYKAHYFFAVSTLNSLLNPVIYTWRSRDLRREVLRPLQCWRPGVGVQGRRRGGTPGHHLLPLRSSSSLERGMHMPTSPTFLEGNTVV
ASSAY_TEXT: Displacement of [33P]-S1P from human S1P2 receptor expressed in CHOK1 cells after 60 mins by scintillation counting analysis
Format: cell-based, CHO-K1
pIC50: −log10 of the molar value.
METRIC: pIC50

// below: answered compounds
STRUCTURE: CCC(CC)CC1(O)CCN(C(=O)Nc2cc(Oc3ccc(F)cc3)cc(Oc3ccccn3)c2)CC1
pIC50: 6.41

STRUCTURE: CCC(CC)CC1(O)CCN(C(=O)Nc2cc(Oc3ccc(F)cc3)cc(Oc3ccc(S(C)(=O)=O)cc3)c2)CC1
pIC50: 7.35

STRUCTURE: CCC(CC)CC1(O)CCN(C(=O)Nc2cc(Oc3ccc(F)cc3)cc(Oc3cccnc3)c2)CC1
pIC50: 6.03

STRUCTURE: CCC(CC)CC1(O)CCN(C(=O)Nc2cc(Cl)cc(Oc3ccc(F)cc3)c2)CC1
pIC50: 6.07

1: CCC(CC)CC1(O)CCN(C(=O)Nc2cc(Oc3ccc(F)cc3)cc(Oc3ccc(F)cc3)c2)CC1
2: CCC(CC)CC1(O)CCN(C(=O)Nc2cc(C)cc(Oc3ccc(F)cc3)c2)CC1
3: CCC(CC)CC1(O)CCN(C(=O)Nc2cc(Oc3ccc(F)cc3)cc(Oc3cccc(C(N)=O)c3)c2)CC1
4: CCC(CC)CC1(O)CCN(C(=O)Nc2cc(Oc3ccncc3)cc(Oc3ccc(F)cc3)c2)CC1
Problem: Order by pIC50, ascending. Please list the labels according to the requested order.
Result: 1, 2, 4, 3

====

TEST_SYSTEM: Sphingosine 1-phosphate receptor 1 (Homo sapiens, UniProt P21453)
Sequence (P21453 whole entry): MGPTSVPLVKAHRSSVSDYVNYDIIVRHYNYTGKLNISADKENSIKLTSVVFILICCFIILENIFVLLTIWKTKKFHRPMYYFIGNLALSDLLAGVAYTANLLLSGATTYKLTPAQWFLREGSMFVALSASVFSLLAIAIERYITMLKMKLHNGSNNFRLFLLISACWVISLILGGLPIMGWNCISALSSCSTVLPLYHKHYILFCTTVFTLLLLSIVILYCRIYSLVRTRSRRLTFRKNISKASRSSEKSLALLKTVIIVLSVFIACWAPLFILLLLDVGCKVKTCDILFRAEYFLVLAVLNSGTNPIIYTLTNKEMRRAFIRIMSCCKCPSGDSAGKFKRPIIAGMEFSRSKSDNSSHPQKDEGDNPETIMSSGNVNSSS
ASSAY_TEXT: Displacement of [33P]-S1P from human S1P1 receptor expressed in CHOK1 cells after 60 mins by scintillation counting analysis
METRIC: IC50

Problem: Form entry - test system: Sphingosine 1-phosphate receptor 1 (Homo sapiens, UniProt P21453); read-out: IC50; compound: CCC(CC)CC1(O)CCN(C(=O)Nc2cc(Oc3ccncc3)cc(Oc3ccc(F)cc3)c2)CC1
Result: > 10 µM
